# Read-out: Bcl-2 (BID) gene, BID (gene 637)
# assay: LTEA_HepaRG_BID: Life Technologies and Expression Analysis (LTEA) Assay for Bcl-2 (BID) gene using HepaRG (AID 2283476)
# test.conditions: mRNA level, 48 h; actives raise or lower the signal
Calls of active or inactive are those of the source. Rule for the calls: active = hit-call score of the fitted dose curve at least 0.9, where 1 is the maximum; inactive = score below 0.9.
Answer with one of the outcomes given here: yes for active, no for inactive

Enquiry: For CCCCCCCCCC , which call appears in the assay record?
Return: no

Enquiry: Lab log entry: COS(C)(=O)=O — outcome as called in the assay?
Return: no

Enquiry: For this compound, state the assay outcome: Cc1ccc(S(=O)(=O)NC(=O)NN2CCCCCC2)cc1
Return: no

Enquiry: Per the assay record, what outcome was assigned to CCCc1ccccc1 ?
Return: no

Enquiry: Fill in: this test's call for CCCCCCCCN(C)C is ___
Return: no

Enquiry: Query: recorded result category for O=S(=O)(O)c1ccc(N=Nc2c(O)ccc3cc(S(=O)(=O)O)ccc23)cc1 in this test
Return: no

Enquiry: Which result was noted for this compound in the test: CCc1ccc(O)c(C(C)(C)C)c1
Return: yes

Enquiry: // outcome(item) with item = O=C1CN(N=Cc2ccc([N+](=O)[O-])o2)C(=O)N1
Return: no

Enquiry: Fill in: this test's call for Cn1cc[nH]c1=S is ___
Return: no

Enquiry: Hello, I am checking results. What call was entered for CCc1cccc(CC)c1N ?
Return: no

Enquiry: Assay result, entry CCN(CC)C(=S)SSC(=S)N(CC)CC — outcome?
Return: no

Enquiry: For O=C(O)c1ccc2c(c1)nc(C(=O)NC1CCN(C3CC3)CC1)n2Cc1cc(-c2ccc(Cl)s2)on1 , which call appears in the assay record?
Return: no

Enquiry: I'd appreciate the recorded outcome for CCCCCCCC1CCC(=O)O1 (centres undefined) from this test.
Return: no

Enquiry: GET /call?item= CC(C)C(=O)Nc1ccc([N+](=O)[O-])c(C(F)(F)F)c1 returns the recorded outcome of this test.
Return: no

###

# Read-out: Fatty acid synthase (Homo sapiens) (UniProt P49327)
# Sequence (P49327 whole entry, looked up): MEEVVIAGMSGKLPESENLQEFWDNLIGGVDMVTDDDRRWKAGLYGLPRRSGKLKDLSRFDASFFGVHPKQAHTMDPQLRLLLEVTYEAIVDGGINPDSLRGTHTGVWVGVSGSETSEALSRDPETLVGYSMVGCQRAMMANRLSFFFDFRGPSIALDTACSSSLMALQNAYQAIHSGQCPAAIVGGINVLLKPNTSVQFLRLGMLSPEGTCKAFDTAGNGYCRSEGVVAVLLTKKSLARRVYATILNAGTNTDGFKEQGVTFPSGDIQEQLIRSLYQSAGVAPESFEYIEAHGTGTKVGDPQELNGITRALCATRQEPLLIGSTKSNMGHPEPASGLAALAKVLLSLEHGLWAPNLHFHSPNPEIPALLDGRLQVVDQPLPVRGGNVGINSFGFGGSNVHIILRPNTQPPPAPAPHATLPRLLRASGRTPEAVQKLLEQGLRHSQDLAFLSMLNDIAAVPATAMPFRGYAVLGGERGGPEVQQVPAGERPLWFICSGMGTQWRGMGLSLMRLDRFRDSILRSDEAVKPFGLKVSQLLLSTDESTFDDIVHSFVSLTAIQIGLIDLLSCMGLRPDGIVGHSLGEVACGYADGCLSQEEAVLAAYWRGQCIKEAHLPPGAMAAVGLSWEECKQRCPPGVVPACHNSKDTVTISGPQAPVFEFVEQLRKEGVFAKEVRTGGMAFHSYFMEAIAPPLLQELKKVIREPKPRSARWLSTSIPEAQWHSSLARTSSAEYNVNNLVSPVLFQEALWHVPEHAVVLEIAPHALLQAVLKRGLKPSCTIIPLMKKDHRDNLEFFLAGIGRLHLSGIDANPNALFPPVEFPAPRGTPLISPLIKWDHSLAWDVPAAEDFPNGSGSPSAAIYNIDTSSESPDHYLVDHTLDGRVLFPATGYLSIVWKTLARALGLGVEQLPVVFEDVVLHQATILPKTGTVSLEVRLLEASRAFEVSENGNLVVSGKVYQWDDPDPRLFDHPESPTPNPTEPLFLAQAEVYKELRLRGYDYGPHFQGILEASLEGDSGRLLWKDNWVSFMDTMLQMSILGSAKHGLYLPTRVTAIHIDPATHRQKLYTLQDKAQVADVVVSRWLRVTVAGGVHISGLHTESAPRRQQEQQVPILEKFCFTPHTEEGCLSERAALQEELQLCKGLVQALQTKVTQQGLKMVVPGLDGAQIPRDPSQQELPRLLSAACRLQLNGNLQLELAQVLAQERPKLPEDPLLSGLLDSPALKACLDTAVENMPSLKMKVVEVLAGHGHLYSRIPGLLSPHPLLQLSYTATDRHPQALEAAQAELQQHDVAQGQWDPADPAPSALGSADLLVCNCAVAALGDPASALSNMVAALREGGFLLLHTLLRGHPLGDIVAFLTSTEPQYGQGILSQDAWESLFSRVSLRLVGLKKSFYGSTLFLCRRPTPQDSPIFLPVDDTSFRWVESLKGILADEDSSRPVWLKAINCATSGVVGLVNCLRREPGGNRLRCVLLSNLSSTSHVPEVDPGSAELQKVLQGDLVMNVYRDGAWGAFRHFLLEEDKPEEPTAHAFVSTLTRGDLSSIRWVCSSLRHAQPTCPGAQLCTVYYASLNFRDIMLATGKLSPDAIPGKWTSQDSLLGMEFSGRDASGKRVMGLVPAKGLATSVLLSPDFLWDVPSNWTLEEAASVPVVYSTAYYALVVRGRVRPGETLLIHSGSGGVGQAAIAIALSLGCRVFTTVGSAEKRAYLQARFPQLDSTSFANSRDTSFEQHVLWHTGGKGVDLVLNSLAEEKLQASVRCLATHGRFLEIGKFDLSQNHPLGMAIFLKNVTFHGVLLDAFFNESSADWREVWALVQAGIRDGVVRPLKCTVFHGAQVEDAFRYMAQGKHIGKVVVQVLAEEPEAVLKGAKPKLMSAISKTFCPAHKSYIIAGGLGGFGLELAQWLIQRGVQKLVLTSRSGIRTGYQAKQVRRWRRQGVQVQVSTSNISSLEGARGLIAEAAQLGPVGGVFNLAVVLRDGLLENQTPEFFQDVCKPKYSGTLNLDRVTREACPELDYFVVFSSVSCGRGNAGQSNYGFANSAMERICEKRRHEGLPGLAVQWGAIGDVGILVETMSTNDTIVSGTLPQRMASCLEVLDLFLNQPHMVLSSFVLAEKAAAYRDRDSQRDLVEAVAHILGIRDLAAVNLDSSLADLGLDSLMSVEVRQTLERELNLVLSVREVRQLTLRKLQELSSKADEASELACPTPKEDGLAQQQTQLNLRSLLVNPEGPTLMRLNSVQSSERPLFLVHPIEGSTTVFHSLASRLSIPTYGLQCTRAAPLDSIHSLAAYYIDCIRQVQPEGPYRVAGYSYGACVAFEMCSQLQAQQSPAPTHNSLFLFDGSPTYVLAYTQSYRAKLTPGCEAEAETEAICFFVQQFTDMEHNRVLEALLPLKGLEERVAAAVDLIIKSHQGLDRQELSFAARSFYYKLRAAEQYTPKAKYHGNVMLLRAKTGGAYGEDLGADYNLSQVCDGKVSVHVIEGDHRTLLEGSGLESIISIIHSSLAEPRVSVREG
# assay: LTEA_HepaRG_FASN: Life Technologies and Expression Analysis (LTEA) Assay for Fatty Acid Synthase (FASN) using HepaRG (AID 2283448)
# test.conditions: mRNA level, 48 h; actives raise or lower the signal
Activity calls are given as the source filed them. The calls were made as follows: active = hit-call score of the fitted dose curve at least 0.9, where 1 is the maximum; inactive = score below 0.9.
Respond using exactly one of the listed classes: active, inactive

Enquiry: Answer briefly: the call reported for O=C(O)c1cccc(C(=O)O)c1 in this assay.
Return: inactive

Enquiry: Tell me the recorded outcome of this test for CCCCCCCC1CCC(=O)O1 (centres undefined) .
Return: inactive

Enquiry: // param item: OC[C@H]1O[C@@H]2O[C@H]3[C@H](O)[C@@H](O)[C@@H](O[C@H]4[C@H](O)[C@@H](O)[C@@H](O[C@H]5[C@H](O)[C@@H](O)[C@@H](O[C@H]6[C@H](O)[C@@H](O)[C@@H](O[C@H]7[C@H](O)[C@@H](O)[C@@H](O[C@H]1[C@H](O)[C@H]2O)O[C@@H]7CO)O[C@@H]6CO)O[C@@H]5CO)O[C@@H]4CO)O[C@@H]3CO ; yields the recorded call
Return: inactive

Enquiry: Hey, what did the test say about CCCCCCCCCCCCCCO ?
Return: inactive

Enquiry: Hi, sorry to bother you, what did the test record for O=S(=O)(O)c1ccc(N=Nc2c(O)ccc3cc(S(=O)(=O)O)ccc23)cc1 ?
Return: inactive

Enquiry: Which outcome was entered for the compound CC(C)C(=O)Nc1ccc([N+](=O)[O-])c(C(F)(F)F)c1 in this test?
Return: active

Enquiry: # lookup: test call for O=C(O)[C@H](O)[C@@H](O)C(=O)O
Return: inactive

Enquiry: Could you check what this test reported for O=C(O)c1cccc(C[C@@H]2COc3ccc(OCc4nc5cc(F)ccc5s4)cc3[C@@H]2O)c1 ?
Return: active

Enquiry: Record lookup: outcome of this test for NC(N)=O ?
Return: inactive
